Just for reference, the supplement of paper PMC12669032 is where these values come from.

# Tested on: Bacteroides uniformis
# Assay Protocol: growth AUC relative to DMSO control (median of replicates) (fraction); higher = more growth (less inhibition), active = hit call of the paper
# Conditions Used: 20 µM; 24 h
This listing pairs compounds with measured growth AUC.
Measure Name: growth AUC

INSERT INTO measurements (smiles_str, value_measured) VALUES
  ('COc1nc(NC(C)C)nc(NC(C)C)n1', 1.02),
  ('Clc1cccc(C(Cl)(Cl)Cl)n1', 0.961),
  ('CCOC(=O)c1ccccc1S(=O)(=O)NC(=O)Nc1nc(Cl)cc(OC)n1', 0.962),
  ('CN(C)NC(=O)CCC(=O)O', 0.992);

* * *

# Test system: Akkermansia muciniphila
# Assay Protocol: growth AUC relative to DMSO control (median of replicates) (fraction); higher = more growth (less inhibition), active = hit call of the paper
# Conditions Used: 20 µM; 24 h
Measure Name: growth AUC

INSERT INTO results (compound, system_tested, measure_name, value_measured) VALUES
  ('CNC(=O)Oc1cc(C)cc(C(C)C)c1', 'Akkermansia muciniphila', 'growth AUC', 0.995),
  ('CC1(C)C(C=C(Cl)Cl)C1C(=O)OCc1cccc(Oc2ccccc2)c1 (mixture of isomers)', 'Akkermansia muciniphila', 'growth AUC', 1.02),
  ('Nc1c(Cl)c(F)nc(OCC(=O)O)c1Cl', 'Akkermansia muciniphila', 'growth AUC', 0.886),
  ('Cc1occc1C(=O)Nc1ccccc1', 'Akkermansia muciniphila', 'growth AUC', 0.899),
  ('CCNC(=O)NC(=O)/C(C#N)=N/OC', 'Akkermansia muciniphila', 'growth AUC', 0.998),
  ('O=C(O)C(Cl)Cl', 'Akkermansia muciniphila', 'growth AUC', 0.875),
  ('CC(Cl)(Cl)C(=O)O', 'Akkermansia muciniphila', 'growth AUC', 0.869),
  ('O=P(OCCCl)(OCCCl)OCCCl', 'Akkermansia muciniphila', 'growth AUC', 0.628),
  ('CCCCOC(=O)[C@@H](C)Oc1ccc(Oc2ccc(C#N)cc2F)cc1', 'Akkermansia muciniphila', 'growth AUC', 1.1),
  ('Nc1nc(N)nc(Cl)n1', 'Akkermansia muciniphila', 'growth AUC', 1.01),
  ('O=S(=O)(c1ccc(O)cc1)c1ccc(O)cc1', 'Akkermansia muciniphila', 'growth AUC', 0.921),
  ('O=c1[nH]c(Cl)c(Cl)cc1Cl', 'Akkermansia muciniphila', 'growth AUC', 0.98);

* * *

# System: Parabacteroides distasonis
# Assay Protocol: growth AUC relative to DMSO control (median of replicates) (fraction); higher = more growth (less inhibition), active = hit call of the paper
# Conditions Used: 20 µM; 24 h
Measure Name: growth AUC

INSERT INTO measurements (compound, value_measured) VALUES
  ('O=[N+]([O-])NC1=NCOCN1Cc1cnc(Cl)s1', 1.01),
  ('CCCSP(=O)(OCC)SCCC', 0.976),
  ('COCc1c(F)c(F)c(COC(=O)[C@@H]2[C@@H](C=C(Cl)Cl)C2(C)C)c(F)c1F', 1),
  ('CC(C)C(C(=O)OC(C#N)c1cccc(Oc2ccccc2)c1)c1ccc(OC(F)F)cc1 (centres undefined)', 0.983);

* * *

# Test system: Lactobacillus paracasei
# Assay Protocol: growth AUC relative to DMSO control (median of replicates) (fraction); higher = more growth (less inhibition), active = hit call of the paper
# Conditions Used: 20 µM; 24 h
This listing pairs compounds with measured growth AUC.
Measure Name: growth AUC

INSERT INTO results (compound, value_measured) VALUES
  ('CC1(C)C(C=C(Cl)Cl)C1C(=O)OC(C#N)c1cccc(Oc2ccccc2)c1 (mixture of isomers)', 1.02),
  ('COP(=S)(OC)Oc1ccc([N+](=O)[O-])cc1', 0.989),
  ('CCOc1ccc(C(C)(C)COCc2cccc(Oc3ccccc3)c2)cc1', 1.04),
  ('C=C(C)CN(CC)c1c([N+](=O)[O-])cc(C(F)(F)F)cc1[N+](=O)[O-]', 1.14),
  ('O=[N+]([O-])C(Br)(CO)CO', 0.999);
